Entries and their measured inhibition follow.
experimentalTarget: UniProt P29274
Sequence (P29274 whole entry): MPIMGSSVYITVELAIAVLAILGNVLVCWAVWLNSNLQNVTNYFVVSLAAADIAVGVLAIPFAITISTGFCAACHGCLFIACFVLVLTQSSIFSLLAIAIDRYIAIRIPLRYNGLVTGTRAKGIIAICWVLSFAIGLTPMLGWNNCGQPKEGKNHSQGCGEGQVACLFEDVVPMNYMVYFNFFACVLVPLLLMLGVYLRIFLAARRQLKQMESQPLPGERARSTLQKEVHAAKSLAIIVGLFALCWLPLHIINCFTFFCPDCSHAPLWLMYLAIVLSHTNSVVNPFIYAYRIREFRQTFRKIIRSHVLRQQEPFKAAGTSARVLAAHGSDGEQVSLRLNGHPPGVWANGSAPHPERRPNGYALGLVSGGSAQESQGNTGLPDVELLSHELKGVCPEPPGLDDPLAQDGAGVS
experimentNotes: Displacement of [3H]ZM-241385 from recombinant human adenosine A2A receptor expressed in HeLa cells at 0.1 uM
Note: unit % is implicit; provide only the numeric part.

Worked set:
[[record]]
compound = "CCCn1c(=O)c2[nH]c(-c3ccc(OCC(=O)Nc4ccccn4)cc3)cc2n(CCC)c1=O"
numericvalue = 34

[[record]]
compound = "CCCn1c(=O)c2[nH]c(-c3ccc(OC(CC)C(=O)Nc4ccc(F)cc4)cc3)cc2n(CCC)c1=O (stereo not drawn)"
numericvalue = 88

[[record]]
compound = "Cn1c(=O)c2[nH]c(-c3ccc(OCC(=O)O)cc3)cc2n(C)c1=O"
numericvalue = 14

[[record]]
compound = "CCCn1c(=O)c2[nH]c(-c3ccc(OC(C)C(=O)Nc4ccccc4)cc3)cc2n(CCC)c1=O (stereo not drawn)"
numericvalue = 42


Qu. # query: inhibition of entry CCCn1c(=O)c2[nH]c(-c3ccc(OCC(=O)Nc4ccc(F)cc4)cc3OC)cc2n(CCC)c1=O
Ans. 43

Qu. # query: inhibition of entry CCCn1c(=O)c2[nH]c(-c3ccc(OCC(=O)Nc4ccc(S(=O)(=O)c5ccccc5)cc4)cc3)cc2n(CCC)c1=O
Ans. 27

Qu. # query: inhibition of entry CCCn1c(=O)c2[nH]c(-c3ccc(OC(CC)C(=O)Nc4ccccc4)cc3)cc2n(CCC)c1=O (stereo not drawn)
Ans. 88

Qu. # query: inhibition of entry COc1cccc(CNC(=O)COc2ccc(-c3cc4c([nH]3)c(=O)n(C)c(=O)n4C)cc2)c1
Ans. 11
